Biological target: NADPH oxidase (Homo sapiens, UniProt P14598)
Construct: Neutrophils were electropermeabilized as described; endogenous in cells; host or cells: electropermeabilized peripheral blood neutrophils (PMN), stimulated with PMA or fMLP
Sequence (P14598 1-390): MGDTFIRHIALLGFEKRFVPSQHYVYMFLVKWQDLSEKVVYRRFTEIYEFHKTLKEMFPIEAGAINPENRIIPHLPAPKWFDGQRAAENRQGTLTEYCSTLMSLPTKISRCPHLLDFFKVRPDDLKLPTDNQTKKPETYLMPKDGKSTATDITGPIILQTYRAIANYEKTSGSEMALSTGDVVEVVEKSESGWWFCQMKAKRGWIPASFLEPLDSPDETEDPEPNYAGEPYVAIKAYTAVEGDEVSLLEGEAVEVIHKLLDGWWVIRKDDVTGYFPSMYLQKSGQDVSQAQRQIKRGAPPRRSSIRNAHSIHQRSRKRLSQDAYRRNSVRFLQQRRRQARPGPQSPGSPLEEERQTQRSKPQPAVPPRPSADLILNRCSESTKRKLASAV
Assay: Permeabilized cell NADPH oxidase assay (electropermeabilized neutrophils stimulated with PMA or fMLP)
Assay type: cell-based
Settings: fMLP 10 μM; preincubation with 800 μM peptide, assay with 200 μM peptide
Where a SMILES comes first, the peptide text is derived from it.
reportedProperty: Mean inhibition vs. buffer control (n), Electropermeabilized cell, FMLP (%)
Please state the figure in %; there is no need to write the unit.

**Q:** Looking for the measured Mean inhibition vs. buffer control (n), Electropermeabilized cell, FMLP of NC(=O)C[C@H](NC(=O)[C@@H](N)CO)C(=O)N[C@@H](CO)C(=O)N[C@@H](CCC(=O)O)C(=O)N[C@@H](CO)C(=O)NCC(=O)N1CCC[C@H]1C(=O)O [SNSESGP] (H-SNSESGP-OH) , can you help?
**A:** 2

###

Target: NADPH oxidase (Homo sapiens)
Construct: Neutrophils were electropermeabilized as described; endogenous in cells; host or cells: electropermeabilized peripheral blood neutrophils (PMN), stimulated with PMA or fMLP
Sequence (P14598 1-390): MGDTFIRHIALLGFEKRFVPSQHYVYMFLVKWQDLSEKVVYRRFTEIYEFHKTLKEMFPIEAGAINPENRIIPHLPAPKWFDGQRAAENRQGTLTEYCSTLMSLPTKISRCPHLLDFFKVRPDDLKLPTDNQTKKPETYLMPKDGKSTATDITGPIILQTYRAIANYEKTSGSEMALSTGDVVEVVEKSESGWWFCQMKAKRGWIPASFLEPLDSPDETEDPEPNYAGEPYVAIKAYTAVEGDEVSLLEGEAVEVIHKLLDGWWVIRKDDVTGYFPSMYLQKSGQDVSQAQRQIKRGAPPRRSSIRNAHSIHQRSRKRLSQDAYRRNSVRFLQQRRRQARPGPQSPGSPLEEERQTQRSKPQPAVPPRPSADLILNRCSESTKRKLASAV
Assay: Permeabilized cell NADPH oxidase assay (electropermeabilized neutrophils stimulated with PMA or fMLP)
Format: cell-based
Conditions: PMA 10 ng/ml; preincubation with 800 μM peptide, assay with 200 μM peptide
Protocol: Neutrophils were electropermeabilized as described (Grinstein et al, J. Biol. Chem., 263, 1779-1783 (1988)), incubated on ice for 30 min in permeabilization buffer (140 mM KCl, 1 mM MgCl2, 1 mM EGTA, 0.193 mM CaCl2, 1 mM ATP, 2 mM NADPH, 10 μM GTP, 10 mM glucose, 10 mM HEPES-N-methylglucamine, pH 7) supplemented with synthetic peptide (800 μM). […] Wells containing 5×10^5 cells were stimulated with PMA (10 ng/ml) or fMLP (10 μM) and O2^-- production was determined as above. […]
Where a SMILES comes first, the peptide text is derived from it.
reportedProperty: Mean inhibition vs. buffer control (n), Electropermeabilized cell, PMA (%)
Please state the figure in %; there is no need to write the unit.

Record excerpt, results attached:
molecule	unitSpec	recordedValue
CC[C@H](C)[C@H](NC(=O)[C@H](Cc1ccccc1)NC(=O)[C@H](Cc1c[nH]cn1)NC(=O)[C@@H](NC(=O)CNC(=O)[C@@H](N)CCCNC(=N)N)C(C)C)C(=O)N[C@@H](Cc1ccccc1)C(=O)O [RGVHFIF, Arg--Gly--Val--His--Phe--Ile--Phe] (H-RGVHFIF-OH)	%	72
CSCC[C@H](NC(=O)[C@H](CO)NC(=O)[C@H](Cc1ccccc1)NC(=O)[C@@H](N)C(C)C)C(=O)N[C@@H](Cc1ccccc1)C(=O)N[C@@H](CCC(N)=O)C(=O)NCC(=O)N[C@@H](CCC(=O)O)C(=O)N[C@@H](CCC(=O)O)C(=O)N[C@@H](CO)C(=O)O [VFSMFQGEES] (H-VFSMFQGEES-OH)	%	3
CC(C)C[C@H](NC(=O)[C@@H](N)Cc1c[nH]cn1)C(=O)N[C@@H](Cc1ccccc1)C(=O)N[C@@H](CC(N)=O)C(=O)N[C@H](C(=O)N[C@@H](CCC(=O)O)C(=O)N[C@@H](Cc1c[nH]c2ccccc12)C(=O)N[C@@H](CS)C(=O)O)C(C)C [HLFNVEWC] (H-HLFNVEWC-OH)	%	-6
NC(N)=NCCC[C@H](NC(=O)[C@H](Cc1ccccc1)NC(=O)[C@@H]1CCCN1C(=O)[C@H](CO)NC(=O)[C@H](Cc1ccccc1)NC(=O)CNC(=O)[C@@H]1CCCN1C(=O)[C@@H]1CCCN1C(=O)[C@@H](N)CCCN=C(N)N)C(=O)O [Bradykinin] (H-RPPGFSPFR-OH)	%	-8
NC(=O)C[C@H](NC(=O)[C@@H](N)CO)C(=O)N[C@@H](CO)C(=O)N[C@@H](CCC(=O)O)C(=O)N[C@@H](CO)C(=O)NCC(=O)N1CCC[C@H]1C(=O)O [SNSESGP] (H-SNSESGP-OH)	%	-1

For the next question, use this molecule.
**Q:** Looking for the measured Mean inhibition vs. buffer control (n), Electropermeabilized cell, PMA of CC[C@H](C)[C@H](NC(=O)[C@@H](NC(=O)[C@H](C)NC(=O)[C@H](CCC(N)=O)NC(=O)[C@H](Cc1ccccc1)NC(=O)CNC(=O)[C@H](C)NC(=O)[C@H](Cc1c[nH]cn1)NC(=O)[C@H](C)NC(=O)[C@H](CCCNC(=N)N)NC(=O)[C@H](CCCCN)NC(=O)[C@@H](N)CCCNC(=N)N)[C@@H](C)O)C(=O)O [RKRAHAGFQATI] (H-RKRAHAGFQATI-OH) , can you help?
**A:** -11
